- Assay Explanation: binders from COS7 lysate, DM2A8 probe, primary screen, torsin A project, cell lysate, small-molecule microarray, fluorescence 635/667 (AID 1065)
- Condition Label: higher = more signal, COS7 lysate expressing mutant human TOR1A
Decide by composite z-score: equal to or exceeding 0.6 means Y, less means N.

| Compound | Class |
| --- | --- |
| NC(=O)[C@@]1(Cc2ccccc2)COC(c2ccc(OCCCO)cc2)=N1 | Y |
| COc1ccc([Si](C)(C)[C@@H]2[C@@H](CCO)O[C@]3(C(=O)N(Cc4cccc(NC(=O)[C@H](C)O)c4)c4ccccc43)[C@H]2C)cc1 | N |
| CC(C)c1ccc(NN2C(C(O)c3ccc(F)cc3)C=CC3C(=O)N(c4ccccc4)C(=O)C32)cc1 (stereo not given) | N |

Turning to the following compound.
Does the compound CN(C)C(=O)[C@@]1(Cc2ccccc2CN=[N+]=[N-])N=C(c2ccc(OCCCO)cc2)O[C@H]1c1ccccc1N=[N+]=[N-] have recorded composite z-score that is 0.6 or more? N

----------
- Assay Explanation: JC-1 mitochondrial signal, unstimulated adipocytes – cell-based, JC-1 fluorescence, 3T3-L1 adipocytes, 24 h, 100 nL compound, profiling panel (AID 1168); also: test concentration not given here
- Condition Label: JC-1 mitochondrial fluorescence, higher = more signal, called active from +8 up or from −8 down
Activity calls are given as the source filed them.
Reported z-score by item:

| Compound | Measurement Name | Result |
| --- | --- | --- |
| C=CCNC(=O)[C@@H]1[C@H]2C(=O)O[C@H](c3ccccc3)[C@H](c3ccccc3)N2[C@H](c2ccccc2OCCO)[C@@]12C(=O)Nc1ccc(C#CCC(C(=O)OC)C(=O)OC)cc12 | z-score | 2.37 (inactive) |
| COCC(=C=CC[C@H](O)c1ccccc1OCCO)C[C@H](O)c1ccccn1 | z-score | -0.443 (inactive) |
| CCOC(=O)C[C@H]1[C@H](OC(=O)c2cc3ccccc3oc2=O)[C@@H](NC(=O)c2ccc3ccccc3n2)c2cc(OCCCO)ccc2N1C(=O)Cc1ccc(OC)cc1 | z-score | -0.362 (inactive) |
| COc1ccc([Si](C)(C)[C@H]2[C@H](CC(=O)N3CCC[C@H]3CO)O[C@@]3(C(=O)N(Cc4ccc(N5CCOC5=O)cc4)c4ccccc43)[C@@H]2C)cc1 | z-score | 0.388 (inactive) |
| COC(=O)[C@@]1(Cc2ccc(F)cc2)[C@H]2c3cc(C(=O)N(C)C)n(CCc4ccc(OC)c(Br)c4)c3C[C@H]2CN1C(=O)c1ccccc1 | z-score | -0.662 (inactive) |
| O=C1C2C=CC(C(O)c3cccc(O)c3)N(Nc3ccc([N+](=O)[O-])cc3)C2C(=O)N1c1ccccc1 (centres undefined) | z-score | -1.78 (inactive) |

May I ask what z-score has been recorded for COCCOC(=O)N1C(=O)[C@@]2(c3cc(C#CC4(O)CCCCCC4)ccc31)[C@H](C(=O)Nc1nc3ccccc3s1)[C@H]1C(=O)O[C@H](c3ccccc3)[C@H](c3ccccc3)N1[C@@H]2c1ccc(O)cc1 ? -0.421 (inactive)

May I ask what z-score has been recorded for CCCCCCCCCCC(O)C1C=CC2C(=O)N(c3ccccc3)C(=O)C2N1Nc1ccc(C#N)cc1 (centres undefined) ? -0.15 (inactive)

May I ask what z-score has been recorded for Oc1ccc2cc[n+](Cc3cc4c(cc3Br)OCO4)cc2c1 ? 0.418 (inactive)

----------
- Assay Explanation: plasmodial surface anion channel blockers, osmotic lysis – cell-based, P. falciparum Indochina, OD700, 1 h, primary screen (AID 1154)
- Condition Label: P. falciparum Indochina infected RBC osmotic lysis, called active from +8 up or from −8 down
The source made the active and inactive calls.
Please reply with one of these outcomes: yes for active, no for inactive

A selection of reference data follows.
| Compound | Class |
| --- | --- |
| [N-]=[N+]=Nc1ccccc1C[C@@]1(C(N)=O)N=C(c2ccc(OCCCO)cc2)O[C@@H]1c1ccccc1N=[N+]=[N-] | yes |
| COc1cc(C(O)C2C=CC3C(=O)N(C)C(=O)C3N2Nc2ccccc2)cc(OC)c1OC (centres undefined) | no |
| COC(=O)c1c(CC[C@@H](CO)NC(=O)N2CCC[C@H]2Cn2cc(C3(O)CCCCC3)nn2)oc(C(C)=O)c1C(=O)OC | no |
| CCOC(=O)C[C@H]1[C@H](OC(=O)c2cc3ccccc3oc2=O)[C@@H](NC(=O)CC(C)C)c2cc(OCCCO)ccc2N1C(=O)c1ccc2ccccc2n1 | yes |
| CC(C)[Si]1(C(C)C)OCc2cc(-c3ccc(-c4ccc(Cl)c(Cl)c4)o3)nc(-c3ccccc3)c21 | no |
| C=CCC(OC(C)=O)[C@@H]1[C@@H](N(Cc2ccc(-c3cccc(C(F)(F)F)c3)o2)C(=O)c2ccc(-c3ccccc3)cc2)c2cc(OCCCO)ccc2N1C(=O)Cc1ccc2ccccc2c1 (some centres undefined) | no |

Test call for this compound, please: C=CCOC(=O)[C@@H]1[C@H]2C(=O)O[C@H](c3ccccc3)[C@H](c3ccccc3)N2[C@H](c2ccc(OCCOC(=O)[C@@H]3C[C@@H]4C(=O)N[C@@H](CCCC[N+](C)(C)C)C(=O)N4[C@@H]3c3ccc(O)cc3)cc2)[C@@]12C(=O)Nc1ccc(I)cc12 no

Test call for this compound, please: COCCOC(=O)N1C(=O)[C@@]2(c3ccccc31)[C@H](c1ccc(O)cc1)N1[C@H](c3ccccc3)[C@H](c3ccccc3)OC(=O)[C@H]1[C@@H]2C(=O)N1CCN(c2ncccn2)CC1 no

Test call for this compound, please: O=C(C1N=C(c2ccc(OCCCO)cc2)N(c2ccccc2)O1)N1CCCCC1 (centres undefined) yes

Test call for this compound, please: COC(=O)C1=CC(CCCO)=CC(c2cccs2)N(Cc2cccc(OC(F)(F)F)c2)C=C1C(=O)OC (centres undefined) no

Test call for this compound, please: OCCCC1=CC(c2ccc(CN3CCCC3)cc2)N(Cc2cc3c(cc2Br)OCO3)CC1 (centres undefined) no

Test call for this compound, please: COc1ccc(C(=O)Nc2ccc(CN3C(=O)[C@]4(O[C@H](CC(=O)N5Cc6ccccc6C[C@H]5CO)[C@@H]([Si](C)(C)c5ccc(OC)cc5)[C@@H]4C)c4ccccc43)cc2)cc1 no

Test call for this compound, please: C=CCNC(=O)[C@@H]1[C@H]2C(=O)O[C@H](c3ccccc3)[C@H](c3ccccc3)N2[C@H](c2ccccc2OCCO)[C@@]12C(=O)Nc1ccc(C#CCC(C(=O)OC)C(=O)OC)cc12 no

Test call for this compound, please: Cc1ccc(S[C@]2(C(=O)NCC(F)(F)F)CC(=O)N(Cc3cc(C(F)(F)F)cc(C(F)(F)F)c3)[C@@H]2c2ccc(CO)cc2I)cc1 no

----------
- Experimental System: Fibroblast growth factor 10 (Homo sapiens) (UniProt O15520)
- Sequence (O15520 whole entry, looked up): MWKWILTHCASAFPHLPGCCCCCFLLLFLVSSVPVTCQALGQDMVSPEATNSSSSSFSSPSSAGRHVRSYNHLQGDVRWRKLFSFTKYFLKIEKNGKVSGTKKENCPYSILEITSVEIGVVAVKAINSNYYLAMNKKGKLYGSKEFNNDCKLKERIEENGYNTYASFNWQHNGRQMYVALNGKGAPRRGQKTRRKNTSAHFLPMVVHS
- Assay Explanation: compounds binding fibroblast growth factor 10 – biochemical, small-molecule microarray, 635 nm fluorescence, primary screen (AID 1102)
- Condition Label: FGF10 binding, fluorescence 635 nm, higher = more signal
Decide by composite z-score: equal to or exceeding 0.7 means Condition met, less means Condition not met.

| Compound | Experimental System | Class |
| --- | --- | --- |
| COC(=O)C1=CC(CCCO)=CC(c2cccs2)N(C)C=C1C(=O)OC (stereo not given) | Fibroblast growth factor 10 (Homo sapiens) (UniProt O15520) | Condition not met |
| CC(CO)N1C(=O)[C@@H]2[C@H]3C(=O)OCC=C[C@H]3OC23C=CCN(Cn2nnc4ccccc42)C(=O)[C@@H]13 (stereo not given in full) | Fibroblast growth factor 10 (Homo sapiens) (UniProt O15520) | Condition not met |
| COc1ccc([Si](C)(C)[C@H]2[C@H](CC(=O)N3CCC[C@H]3CO)O[C@@]3(C(=O)N(Cc4ccc(N5CCOC5=O)cc4)c4ccccc43)[C@@H]2C)cc1 | Fibroblast growth factor 10 (Homo sapiens) (UniProt O15520) | Condition met |

Does the compound [N-]=[N+]=Nc1ccccc1C[C@]1(C(=O)NCC(O)CO)COC(c2ccc(OCCCO)cc2)=N1 (stereo not given in full) have recorded composite z-score that is 0.7 or more? Condition not met

Does the compound C=CCNC(=O)[C@@H]1[C@H]2C(=O)O[C@H](c3ccccc3)[C@H](c3ccccc3)N2[C@H](c2ccc(O)cc2)[C@@]12C(=O)N(C(=O)OCCOC)c1ccc(C#CC3=CCCCC3)cc12 have recorded composite z-score that is 0.7 or more? Condition met

Does the compound [N-]=[N+]=Nc1ccccc1[C@@H]1OC(c2ccc(OCCCO)cc2)=N[C@]1(Cc1ccccc1)C(=O)O have recorded composite z-score that is 0.7 or more? Condition met

Does the compound C#CCN(Cc1ccccc1Br)[C@H](/C=C/c1ccccc1)[C@@H](O)Cc1ccccc1 have recorded composite z-score that is 0.7 or more? Condition not met

Does the compound Cc1ccc(NN2C(C(O)c3c(F)cccc3Cl)C=CC3C(=O)N(C4CCCCC4)C(=O)C32)cc1 (stereo not given) have recorded composite z-score that is 0.7 or more? Condition not met
